Data origin, for the record: patent US20210317092A1

Target: human Bradykinin B1 receptor (Homo sapiens)
Construct: host or cells: CHO-K1
Experiment: Calcium flux Assay (FLIPR) with recombinant CHO-K1 cells expressing human Bradykinin B1 receptor, in presence (hB1 IC50) or absence (hB1 free IC50) of 0.1% BSA
Format: cell-based
Conditions: in presence of 0.1% BSA, read-out: hB1 IC50
just bin them by IC50: group A: < 30 nM; group B: ≥ 30 nM and < 100 nM; group C: ≥ 100 nM

                                    molecule    group
 0  O=C(Nc1ccc(-c2cc3c(Cl)nccc3o2)c(-c2nnn[nH]2)c1)C1(c2cccc(Cl)c2)CC1 [Example 332]  group C
 1  CCOc1ccc(-c2ccc(NC(=O)C3(c4ccc(F)c(C)c4)CC3)cc2-c2nnn[nH]2)cn1 [Example 102]  group B
 2  COc1ccc(-c2ccc(NC(=O)C3(c4cc(F)ccc4Cl)CC3)cc2-c2nnn[nH]2)cc1OC [Example 30]  group C
 3  COc1ccc(-c2ccc(NC(=O)C3(c4ccc(Cl)cc4)CC3)cc2-c2nnn[nH]2)cc1OC [Example 43]  group A
 4  CCOc1ccc(-c2ccc(NC(=O)C3(c4cccc(F)c4F)CC3)cc2-c2nnn[nH]2)cn1 [Example 79]  group A
 5  CCOc1ccc(-c2ccc(NC(=O)C3(C(F)(F)F)CC3)cc2-c2nnn[nH]2)cn1 [Example 91]  group C
 6  O=C(Nc1cc(-c2nnn[nH]2)c(-c2ccc(C(F)(F)F)nc2)cc1O)C1(c2ccc(Cl)cc2)CC1 [Example 226]  group C
 7  COc1ccc(-c2ccc(NC(=O)C3(c4ccc(C(F)(F)F)cc4F)CC3)cc2-c2nnn[nH]2)cc1OC [Example 20]  group B
 8  COc1ccc(-c2cc(F)c(NC(=O)C3(c4ccc(Cl)cc4F)CC3)cc2-c2nnn[nH]2)cc1C [Example 231]  group C
 9  COc1ccc(-c2ccc(NC(=O)C3(c4ccc(C(F)(F)F)cc4)CC3)cc2-c2nnn[nH]2)cc1OC [Example 44]  group A
10  CCOc1ccc(-c2ccc(NC(=O)C3(c4cccc(Cl)c4)CC3)cc2-c2nnn[nH]2)cc1OC [Example 119]  group A
11  COc1ccc(-c2ccc(NC(=O)C3(c4ccc(F)cc4Cl)CC3)cc2-c2nnn[nH]2)cc1OC [Example 28]  group C
12  CCOc1ncc(-c2ccc(NC(=O)C3(c4cccc(Cl)c4)CC3)cc2-c2nnn[nH]2)cc1C(F)(F)F [Example 158]  group C
13  CCOc1ccc(-c2ccc(NC(=O)C3(C)CC3)cc2-c2nnn[nH]2)cn1 [Example 88]  group C
14  CCOc1ccc(-c2ccc(NC(=O)C3(c4cc(F)cc(OC)c4)CC3)cc2-c2nnn[nH]2)cn1 [Example 103]  group A
15  CCCOc1ccc(-c2ccc(NC(=O)C3(c4ccc(F)cc4F)CC3)cc2-c2nnn[nH]2)cn1 [Example 112]  group B
16  O=C(Nc1cc(-c2nnn[nH]2)c(-c2ccc(C(F)(F)F)nc2)cc1O)C1(c2cccc(Cl)c2F)CC1 [Example 225]  group B
17  COc1ccc(-c2ccc(NC(=O)C3(c4ccc(C)c(F)c4)CC3)cc2-c2nnn[nH]2)cc1OC [Example 12]  group A

====

Entries and their measured pIC50 follow.
Biological target: human Bradykinin B1 receptor (Homo sapiens, UniProt P46663)
Construct: host or cells: CHO-K1
Sequence (P46663 whole entry): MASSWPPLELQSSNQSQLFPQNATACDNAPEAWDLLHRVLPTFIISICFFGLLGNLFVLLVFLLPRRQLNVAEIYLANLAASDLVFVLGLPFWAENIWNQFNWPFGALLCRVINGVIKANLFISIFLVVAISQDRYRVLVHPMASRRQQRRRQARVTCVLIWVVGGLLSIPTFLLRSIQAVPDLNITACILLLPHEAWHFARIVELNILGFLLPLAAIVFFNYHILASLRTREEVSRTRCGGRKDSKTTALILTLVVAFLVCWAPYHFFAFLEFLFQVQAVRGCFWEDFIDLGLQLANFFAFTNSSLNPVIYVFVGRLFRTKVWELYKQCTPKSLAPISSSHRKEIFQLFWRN
Assay: Calcium flux Assay (FLIPR) with recombinant CHO-K1 cells expressing human Bradykinin B1 receptor, in presence (hB1 IC50) or absence (hB1 free IC50) of 0.1% BSA
Type: cell-based
Details: in absence of 0.1% BSA, read-out: hB1 free IC50
pIC50: −log10 of the molar value.
parameter: pIC50

>>> print(df.to_string())
                             compound_smiles  parameter  value_observed
 0  CC(F)(F)c1ccc(-c2ccc(NC(=O)C3(c4ccc(OC(F)(F)F)cc4F)CC3)cc2-c2nnn[nH]2)cn1      pIC50            8.46
 1  CCC(F)(F)c1ccc(-c2ccc(NC(=O)C3(c4ccc(F)c(F)c4)CC3)cc2-c2nnn[nH]2)cn1      pIC50            7.82
 2  O=C(Nc1ccc(-c2ccc(C(F)(F)F)nc2)c(-c2nnn[nH]2)c1)C1(c2cc(F)c(F)cc2F)CC1      pIC50            6.84
 3  CCC(F)(F)c1ccc(-c2ccc(NC(=O)C3(c4ccc(OC(F)(F)F)cc4F)CC3)cc2-c2nnn[nH]2)cn1      pIC50            8.41
 4  O=C(Nc1cc(F)c(-c2ccnc(C(F)(F)F)c2)c(-c2nnn[nH]2)c1)C1(c2ccc(F)c(F)c2)CC1      pIC50            6.75
 5  CCc1ccn(-c2ccc(NC(=O)C3(c4ccc(C)cc4F)CC3)cc2-c2nnn[nH]2)n1      pIC50            6.55
 6  O=C(Nc1ccc(-c2cnc(C(F)(F)F)nc2)c(-c2nnn[nH]2)c1)C1(c2ccc(Cl)c(F)c2)CC1      pIC50            6.64
 7  O=C(Nc1ccc(-n2ccc(C(F)(F)F)n2)c(-c2nnn[nH]2)c1)C1(c2ccc(OC(F)(F)F)cc2F)CC1      pIC50            7.43
 8  CCOc1ccc(-c2ccc(NC(=O)C3(c4cccc(Cl)n4)CC3)cc2-c2nnn[nH]2)cn1      pIC50            6.75
 9  O=C(Nc1ccc(-n2ccc(CC(F)(F)F)n2)c(-c2nnn[nH]2)c1)C1(c2ccc(C(F)(F)F)cc2F)CC1      pIC50            7.96
10  O=C(Nc1ccc(-n2cnc(C(F)(F)F)c2)c(-c2nnn[nH]2)c1)C1(c2ccc(F)c(F)c2)CC1      pIC50            5.63
11  O=C(Nc1ccc(-n2cc(C(F)(F)F)cn2)c(-c2nnn[nH]2)c1)C1(c2ccc(F)c(F)c2)CC1      pIC50            5.97
12  O=C(Nc1ccc(-n2cc(Cl)cn2)c(-c2nnn[nH]2)c1)C1(c2ccc(C(F)(F)F)cc2F)CC1      pIC50            7.17
13  CCOc1ccc(-c2c(F)cc(NC(=O)C3(c4ccc(C(F)(F)F)cc4F)CC3)cc2-c2nnn[nH]2)cn1      pIC50            8.63
